- target.or.system: ABHD11 (Mus musculus, UniProt Q8K4F5)
- Sequence (Q8K4F5 35-307): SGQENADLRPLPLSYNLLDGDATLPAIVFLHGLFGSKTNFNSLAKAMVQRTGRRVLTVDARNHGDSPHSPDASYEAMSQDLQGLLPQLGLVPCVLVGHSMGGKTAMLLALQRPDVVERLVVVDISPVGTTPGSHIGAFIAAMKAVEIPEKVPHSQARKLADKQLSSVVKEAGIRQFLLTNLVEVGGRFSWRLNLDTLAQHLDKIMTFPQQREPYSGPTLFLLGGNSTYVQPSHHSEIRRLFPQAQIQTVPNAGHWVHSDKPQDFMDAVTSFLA
- experiment: In situ inhibition in cultured mouse T-cells, gel-based competitive ABPP
- Type: cell-based
- test.settings: 4 h at 37° C.; read-out: potency of ABHD11 inactivation in cultured T-cells

>  <compound>
COCC1CCCCN1C(=O)n1ncc(C(O)(c2ccccc2)c2ccccc2)n1 (stereo not shown)

>  <IC50>
140 to 170 pM

$$$$

----------
- target.or.system: APEH (Mus musculus, UniProt Q8R146)
- experiment: In situ inhibition in cultured mouse T-cells, gel-based competitive ABPP
- Assay type: cell-based
- test.settings: 4 h at 37° C.; read-out: potency of APEH inactivation in cultured T-cells

>  <molecule.smiles>
CC(C)CC(O)(CC(C)C)c1cnn(C(=O)N2CCCC2)n1

>  <IC50>
0.14 to 0.17 nM

$$$$

----------
- target.or.system: APEH (Mus musculus, UniProt Q8R146)
- Sequence (Q8R146 1-732): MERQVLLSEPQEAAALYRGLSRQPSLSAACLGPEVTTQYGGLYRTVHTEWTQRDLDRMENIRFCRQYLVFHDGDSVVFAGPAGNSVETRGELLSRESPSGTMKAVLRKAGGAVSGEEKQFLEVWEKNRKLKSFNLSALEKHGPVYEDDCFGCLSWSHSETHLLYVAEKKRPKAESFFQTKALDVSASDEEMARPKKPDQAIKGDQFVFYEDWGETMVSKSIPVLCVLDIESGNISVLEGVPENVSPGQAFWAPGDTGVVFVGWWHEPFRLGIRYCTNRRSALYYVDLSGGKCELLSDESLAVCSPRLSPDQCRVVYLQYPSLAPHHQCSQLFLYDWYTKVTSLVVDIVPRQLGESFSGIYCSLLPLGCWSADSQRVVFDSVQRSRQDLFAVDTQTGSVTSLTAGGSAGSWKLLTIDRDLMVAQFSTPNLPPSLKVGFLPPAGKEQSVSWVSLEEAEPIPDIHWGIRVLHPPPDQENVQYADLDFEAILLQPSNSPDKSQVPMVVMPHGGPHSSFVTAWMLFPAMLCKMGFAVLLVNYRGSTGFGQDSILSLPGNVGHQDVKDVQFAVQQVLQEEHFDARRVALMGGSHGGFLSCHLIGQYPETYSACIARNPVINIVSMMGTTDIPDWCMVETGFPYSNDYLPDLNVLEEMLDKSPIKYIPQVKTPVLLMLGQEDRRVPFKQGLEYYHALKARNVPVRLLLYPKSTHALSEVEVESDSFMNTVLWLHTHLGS
- experiment: Gel-based competitive ABPP, mouse T-cell proteome in vitro
- Type: biochemical
- test.settings: IC50 for APEH, in vitro, 30 minutes at 37° C., mouse

>  <molecule.smiles>
CC(C)CC(O)(CC(C)C)c1cn(C(=O)N2CCCC2)nn1

>  <target.or.system>
APEH (Mus musculus, UniProt Q8R146)

>  <IC50>
~8 nM

$$$$

----------
- target.or.system: rat APEH (Rattus norvegicus, UniProt P13676)
- Construct: endogenous in cells
- Sequence (P13676 whole entry): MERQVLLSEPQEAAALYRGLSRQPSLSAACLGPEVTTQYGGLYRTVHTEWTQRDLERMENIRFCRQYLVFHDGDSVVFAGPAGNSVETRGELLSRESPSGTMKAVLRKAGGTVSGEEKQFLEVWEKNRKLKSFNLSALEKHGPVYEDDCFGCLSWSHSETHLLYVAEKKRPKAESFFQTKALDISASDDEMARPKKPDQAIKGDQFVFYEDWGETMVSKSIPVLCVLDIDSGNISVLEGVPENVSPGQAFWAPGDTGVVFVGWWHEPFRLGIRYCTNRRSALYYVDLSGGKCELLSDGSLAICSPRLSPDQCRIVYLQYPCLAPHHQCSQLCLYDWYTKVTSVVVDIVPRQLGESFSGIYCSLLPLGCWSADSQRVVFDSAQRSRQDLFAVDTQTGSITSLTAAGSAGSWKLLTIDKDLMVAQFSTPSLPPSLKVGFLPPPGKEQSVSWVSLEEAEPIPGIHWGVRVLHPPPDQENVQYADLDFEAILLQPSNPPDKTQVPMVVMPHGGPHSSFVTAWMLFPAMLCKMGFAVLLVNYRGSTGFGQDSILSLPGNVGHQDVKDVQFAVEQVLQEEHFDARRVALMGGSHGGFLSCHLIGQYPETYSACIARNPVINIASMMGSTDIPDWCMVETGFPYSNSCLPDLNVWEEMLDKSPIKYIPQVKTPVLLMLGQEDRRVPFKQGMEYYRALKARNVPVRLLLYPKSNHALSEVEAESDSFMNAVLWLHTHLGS
- experiment: Competitive ABPP, soluble fraction of rat neuroblastoma (B103) cells
- Protocol: The soluble fractions of human ovarian (SKOV3), melanoma (C8161), and breast (MDA-MB-231) cancer cells, as well as rat neuroblastoma (B103) cells were treated with 30 nM AA74-1 or DMSO for 30 minutes at 37° C., after which the samples were analyzed by competitive ABPP. Inhibited APEH is highlighted with boxes. Note that other SHs detected in human and mouse proteomes were not inhibited by AA74-1.
experimental.endpoint: IC50 (nM)

>  <molecule.smiles>
CC(C)CC(O)(CC(C)C)c1cnn(C(=O)N2CCCC2)n1

>  <target.or.system>
rat APEH (Rattus norvegicus, UniProt P13676)

>  <meas.value>
7

$$$$
